# SYSTEM TESTED: PKM2 (Homo sapiens, UniProt P14618)
# Sequence (P14618 whole entry): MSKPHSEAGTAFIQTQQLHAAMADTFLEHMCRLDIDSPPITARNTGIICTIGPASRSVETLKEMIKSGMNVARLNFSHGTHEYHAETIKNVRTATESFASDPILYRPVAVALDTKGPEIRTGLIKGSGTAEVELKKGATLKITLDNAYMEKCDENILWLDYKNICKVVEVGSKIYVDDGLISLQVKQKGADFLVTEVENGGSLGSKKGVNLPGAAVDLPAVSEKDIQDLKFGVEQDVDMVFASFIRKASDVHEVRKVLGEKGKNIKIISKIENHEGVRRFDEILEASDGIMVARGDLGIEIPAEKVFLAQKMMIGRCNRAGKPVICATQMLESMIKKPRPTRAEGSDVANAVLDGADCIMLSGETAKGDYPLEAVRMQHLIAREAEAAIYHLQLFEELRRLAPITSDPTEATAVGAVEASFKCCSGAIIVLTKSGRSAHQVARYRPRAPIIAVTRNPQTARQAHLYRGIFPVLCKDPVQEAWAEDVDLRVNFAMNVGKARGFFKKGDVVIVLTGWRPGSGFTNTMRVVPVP
# ASSAY TEXT: PKM2 Assay (activation; LDH-coupled, NADH absorbance at 340 nm)
# Format: biochemical
# PROTOCOL CONDITIONS: PKM2 50 ng/well, ADP 0.7 mM, PEP 0.15 mM, no FBP in Reaction Mix
The reader will find reported AC50 values listed item by item below.

>  <COMPOUND>
Cn1c(=O)oc2cc(S(=O)(=O)NC3CCCCC3)ccc21

>  <AC50>
1 to 10 µM

$$$$

Kindly consider the entry below.
Field AC50 (PKM2 (Homo sapiens, UniProt P14618)), entry `COc1cccc(F)c1S(=O)(=O)N(C)c1ccc2sc(=O)n(C)c2c1` : 10 to 50 µM

----------
# SYSTEM TESTED: UniProt P14618
# ASSAY TEXT: PKM2 Assay (activation; LDH-coupled, NADH absorbance at 340 nm)
# Format: biochemical
# PROTOCOL CONDITIONS: PKM2 50 ng/well, ADP 0.7 mM, PEP 0.15 mM, no FBP in Reaction Mix
The reader will find reported AC50 values listed item by item below.

>  <COMPOUND>
Cn1c(=O)oc2cc(S(=O)(=O)N3CCN(S(=O)(=O)c4ccc5ccccc5c4)CC3)ccc21

>  <VAL>
< 1 µM

$$$$
>  <COMPOUND>
Cn1c(=O)oc2cc(F)c(NS(=O)(=O)c3cccs3)cc21

>  <VAL>
> 100 µM

$$$$
>  <COMPOUND>
CCn1c(=O)oc2ccc(NS(=O)(=O)c3cccs3)cc21

>  <VAL>
> 100 µM

$$$$
>  <COMPOUND>
Cn1c(=O)oc2cc(S(=O)(=O)Nc3ccc4ncccc4c3)ccc21

>  <VAL>
1 to 10 µM

$$$$
>  <COMPOUND>
CCC(C)n1c(=O)sc2ccc(NS(=O)(=O)c3cc(Cl)ccc3OC)cc21 (stereo not drawn)

>  <VAL>
1 to 10 µM

$$$$
>  <COMPOUND>
COc1ccc(Cl)cc1NS(=O)(=O)c1cc2oc(=O)n(C)c2cc1C

>  <VAL>
1 to 10 µM

$$$$
>  <COMPOUND>
Cn1c(=O)oc2cc(S(=O)(=O)N3CCN(S(=O)(=O)c4c(F)cccc4F)CC3)ccc21

>  <VAL>
1 to 10 µM

$$$$
>  <COMPOUND>
Cc1cc2c(cc1NS(=O)(=O)c1cccs1)oc(=O)n2C

>  <VAL>
10 to 50 µM

$$$$

The compound listed as `Cc1cc2c(cc1S(=O)(=O)N1CCN(Cc3ccccc3)CC1)oc(=O)n2C` has a reported AC50 of 1 to 10 µM

The compound listed as `Cc1ccc(COC(=O)N2CCN(S(=O)(=O)c3cc4oc(=O)n(C)c4cc3C)CC2)cc1` has a reported AC50 of 1 to 10 µM

The compound listed as `Cn1c(=O)oc2cc(F)c(S(=O)(=O)Nc3c(F)cccc3F)cc21` has a reported AC50 of > 100 µM

The compound listed as `COc1cc(NS(=O)(=O)c2ccc3c(c2)oc(=O)n3C)cc(OC)c1` has a reported AC50 of < 1 µM

----------
# SYSTEM TESTED: PKM2 (Homo sapiens)
# ASSAY TEXT: PKM2 Assay (activation; LDH-coupled, NADH absorbance at 340 nm)
# Assay type: biochemical
# PROTOCOL CONDITIONS: PKM2 50 ng/well, ADP 0.7 mM, PEP 0.15 mM, no FBP in Reaction Mix
The reader will find reported AC50 values listed item by item below.

Before answering, review these 3 worked examples.
>  <SMILES INPUT>
CCn1c(=O)sc2ccc(NS(=O)(=O)c3cc(C)ccc3OC)cc21

>  <SYSTEM TESTED>
PKM2 (Homo sapiens)

>  <VAL>
1 to 10 µM

$$$$
>  <SMILES INPUT>
Cc1cc2oc(=O)n(C)c2cc1S(=O)(=O)Nc1ccccc1Cl

>  <SYSTEM TESTED>
PKM2 (Homo sapiens)

>  <VAL>
1 to 10 µM

$$$$
>  <SMILES INPUT>
Cc1cc2oc(=O)n(C)c2cc1S(=O)(=O)Nc1ccc(F)cc1

>  <SYSTEM TESTED>
PKM2 (Homo sapiens)

>  <VAL>
< 1 µM

$$$$

The compound listed as `O=c1[nH]c2cc(NS(=O)(=O)c3cccc(Cl)c3)c(Cl)cc2o1` has a reported AC50 of 10 to 50 µM

The compound listed as `CCn1c(=O)oc2cc(C)c(NS(=O)(=O)c3cc(Cl)ccc3OC)cc21` has a reported AC50 of 10 to 50 µM

The compound listed as `COc1ccc(Cl)cc1S(=O)(=O)N1CCN(S(=O)(=O)c2cc3c(cc2F)oc(=O)n3C)CC1` has a reported AC50 of < 1 µM

The compound listed as `Cn1c(=O)sc2cc(S(=O)(=O)Nc3ccc4ccccc4c3)ccc21` has a reported AC50 of < 1 µM

The compound listed as `Cc1ccc(NS(=O)(=O)c2ccc3c(c2)oc(=O)n3C)cc1F` has a reported AC50 of 1 to 10 µM

The compound listed as `Cc1cc2oc(=O)n(C)c2cc1S(=O)(=O)Nc1ccc(OC(F)(F)F)c(Cl)c1` has a reported AC50 of 1 to 10 µM

The compound listed as `CCc1cccc(NS(=O)(=O)c2cc3c(cc2C)oc(=O)n3C)c1` has a reported AC50 of < 1 µM

The compound listed as `Cc1cc2oc(=O)n(C)c2cc1S(=O)(=O)Nc1cc(F)cc(Cl)c1` has a reported AC50 of 1 to 10 µM

The compound listed as `Cn1c(=O)oc2cc(S(=O)(=O)Nc3ccc4c(c3)OCO4)ccc21` has a reported AC50 of < 1 µM

The compound listed as `Cn1c(=O)sc2cc(NS(=O)(=O)c3ccc(F)cc3)ccc21` has a reported AC50 of 10 to 50 µM

The compound listed as `Cn1c(=O)sc2cc(S(=O)(=O)N3CCN(S(=O)(=O)c4ccccc4)CC3)ccc21` has a reported AC50 of 1 to 10 µM

The compound listed as `Cn1c(=O)oc2cc(S(=O)(=O)Nc3ccc4ccccc4c3)ccc21` has a reported AC50 of 1 to 10 µM

The compound listed as `O=c1[nH]c2cc(NS(=O)(=O)c3c(F)cccc3F)ccc2s1` has a reported AC50 of 10 to 50 µM

The compound listed as `Cc1cc2oc(=O)n(C)c2cc1S(=O)(=O)Nc1ccc(F)c(Cl)c1` has a reported AC50 of < 1 µM

The compound listed as `Cn1c(=O)oc2cc(S(=O)(=O)Nc3ccc(F)c(Cl)c3)ccc21` has a reported AC50 of < 1 µM

The compound listed as `CCn1c(=O)oc2cc(C)c(S(=O)(=O)Nc3cc(Cl)ccc3OC)cc21` has a reported AC50 of 10 to 50 µM

The compound listed as `COc1ccc(Cl)cc1NS(=O)(=O)c1ccc2sc(=O)sc2c1` has a reported AC50 of 10 to 50 µM

The compound listed as `COc1ccc(Cl)cc1NS(=O)(=O)c1ccc2c(c1)oc(=O)n2C` has a reported AC50 of 1 to 10 µM

The compound listed as `Cc1cc(S(=O)(=O)Nc2cccc(Cl)c2)cc2oc(=O)n(C)c12` has a reported AC50 of < 1 µM

----------
The reader will find reported AC50 values listed item by item below.
# SYSTEM TESTED: UniProtKB P14618
# ASSAY TEXT: PKM2 Assay (activation; LDH-coupled, NADH absorbance at 340 nm)
# Assay type: biochemical
# PROTOCOL CONDITIONS: PKM2 50 ng/well, ADP 0.7 mM, PEP 0.15 mM, no FBP in Reaction Mix

Before answering, review these 5 worked examples.
>  <MOLECULE>
Cc1cc(NS(=O)(=O)c2cc(CN3CCCCC3)c3c(c2)oc(=O)n3C)ccc1F

>  <VAL>
1 to 10 µM

$$$$
>  <MOLECULE>
Cc1cc2oc(=O)n(C)c2cc1S(=O)(=O)Nc1cccc(Cl)c1

>  <VAL>
< 1 µM

$$$$
>  <MOLECULE>
Cc1cc(C)cc(NS(=O)(=O)c2ccc3c(c2)oc(=O)n3CCc2ccccc2)c1

>  <VAL>
1 to 10 µM

$$$$
>  <MOLECULE>
COc1ccc(Cl)cc1S(=O)(=O)Nc1cc2c(cc1C)oc(=O)n2C [drawing 27]

>  <VAL>
> 100 µM

$$$$
>  <MOLECULE>
Cc1cc2c(cc1S(=O)(=O)N1CCCN(c3ccc(C(F)(F)F)cn3)CC1)oc(=O)n2C

>  <VAL>
1 to 10 µM

$$$$

Kindly consider the entry below.
The molecule listed as `Cn1c(=O)oc2cc(Cl)c(NS(=O)(=O)c3cccc(Cl)c3)cc21` has a reported AC50 of 10 to 50 µM
